System: Plasmodium berghei
Assay: Screen against P. berghei liver stage (PbLuc), transformed with Luciferase, at 10uM
Type: functional, HepG2
Conditions: tested at 10 uM
Out of some 69,000 compounds screened, about 8,600 (12%) showed an effect of 50% or more. Many of the other results were omitted from the sample, so strong results are more common in it than they were.
Output: class label from INHIBITION. Mapping: lo = under 20%, mid = from 20% up to 40%, hi = 40% and over

# example entries with known answers
INPUT: Please classify: CCCc1nc(NCc2c(C)nn(CCC)c2C)c2cnn(C)c2n1
OUTPUT: hi

INPUT: And what about the compound CNc1ncc(CN(C)CCN2CCCCC2)cn1 ?
OUTPUT: lo

INPUT: And what about the compound CC(C)c1nccn1Cc1cc(C(=O)NCC(C)n2ccnc2)n[nH]1 (stereo unspecified) ?
OUTPUT: mid

INPUT: And what about the compound CC(Cn1cccn1)NC(=O)CCC(=O)c1cccs1 (stereo unspecified) ?
OUTPUT: lo

INPUT: And what about the compound O=S(=O)(C1CC1)N1CC[C@]2(C[C@@H](Oc3ccccn3)CO2)C1 ?
OUTPUT: lo

***
INPUT: Please classify: Cc1nc(CNC(=O)c2cc(Cn3ccnc3C(C)C)[nH]n2)sc1C
OUTPUT: mid
